# ASSAY SYSTEM: FLT3 (Homo sapiens, UniProt P36888)
# Sequence (P36888 27-993): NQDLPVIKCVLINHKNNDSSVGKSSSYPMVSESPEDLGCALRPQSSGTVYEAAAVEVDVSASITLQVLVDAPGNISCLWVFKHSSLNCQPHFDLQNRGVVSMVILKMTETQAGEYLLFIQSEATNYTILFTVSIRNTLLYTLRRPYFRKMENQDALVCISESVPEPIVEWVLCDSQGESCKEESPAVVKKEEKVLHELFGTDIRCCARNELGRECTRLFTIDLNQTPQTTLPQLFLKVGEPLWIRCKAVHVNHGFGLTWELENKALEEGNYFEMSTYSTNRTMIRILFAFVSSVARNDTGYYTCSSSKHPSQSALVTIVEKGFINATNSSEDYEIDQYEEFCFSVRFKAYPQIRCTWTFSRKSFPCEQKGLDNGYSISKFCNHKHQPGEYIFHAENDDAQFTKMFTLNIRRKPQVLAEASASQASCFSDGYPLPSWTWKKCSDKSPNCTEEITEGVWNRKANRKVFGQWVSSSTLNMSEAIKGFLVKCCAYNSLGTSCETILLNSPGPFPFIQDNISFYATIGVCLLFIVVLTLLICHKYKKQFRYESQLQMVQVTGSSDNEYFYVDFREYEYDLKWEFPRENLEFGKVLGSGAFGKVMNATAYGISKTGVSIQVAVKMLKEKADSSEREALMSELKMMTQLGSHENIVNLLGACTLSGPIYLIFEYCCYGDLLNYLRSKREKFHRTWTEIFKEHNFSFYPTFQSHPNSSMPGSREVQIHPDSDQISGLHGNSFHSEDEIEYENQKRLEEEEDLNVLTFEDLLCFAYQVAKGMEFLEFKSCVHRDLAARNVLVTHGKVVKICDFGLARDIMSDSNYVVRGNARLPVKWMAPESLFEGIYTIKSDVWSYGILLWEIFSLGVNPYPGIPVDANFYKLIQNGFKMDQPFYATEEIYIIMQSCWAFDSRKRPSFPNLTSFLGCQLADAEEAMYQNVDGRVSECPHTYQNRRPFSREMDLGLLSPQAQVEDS
pKi: −log10 of the molar value. Where a name gives a salt, the structure may show the parent alone.
pKi reference

Worked set:
Query: Bench note: what pKi did CCC(C)c1cc2c(N[C@H]3CC[C@H](O)CC3)c(-c3ccc(S(=O)(=O)N4CCOCC4)cn3)cnc2[nH]1 (stereo partly drawn) show?
Result: < 5.00

Query: If you can, please state the reported pKi value of CCCc1cc2c(N[C@H]3CC[C@H](N)CC3)c(-c3cc(OC)ncn3)cnc2[nH]1 .
Result: > 7.00

Query: I am curious: what pKi value has been reported for CC[C@H](C)c1cc2c(N[C@H]3CC[C@H](N)CC3)c(C(=O)Nc3ccc(F)cc3)cnc2[nH]1 ?
Result: 6.00 to 7.00

Query: What value of pKi has been reported for the following compound? CCCc1cc2c(N[C@H]3CC[C@H](N)CC3)c(-c3cnn(C)c3)cnc2[nH]1 [Compound 108, hydrochloride]
Result: 6.00 to 7.00

Query: Endpoint output: pKi of CCCc1cc2c(N[C@H]3CC[C@H](N)CC3)c(-c3nccs3)cnc2[nH]1 . Value?
Result: > 7.00

# evaluate next
Query: I would be grateful if you could share the reported pKi for CCCc1cc2c(N[C@H]3CC[C@H](N)CC3)c(-c3ccnc(N4CCCC4)n3)cnc2[nH]1 [Compound 118, hydrochloride] .
Result: > 7.00

Reference source for all entries: patent US20200071326A1
